- assay_details: Human HepG2 cell viability assay in 384 well format
- Assay type: toxicity, cell-based
- Design: dose 125 nL, time 70.5 hour; concentration not given beside the values
- assay_conditions: HepG2 cells, read-out: Inhibition
compounds and their reported cytotoxicity at 70.5 h
Express your answer in %, writing the number without its unit.

OC(CNCCn1cccn1)c1cccc(F)c1 (stereo not drawn)    -7.66
CC(C)Oc1ccc(CNC(=O)NCc2ccncc2)cc1F    -10.8
C[C@]1(O)CN(CC(=O)N2CCCC2)CC[C@@H]1Oc1cccc(F)c1    17.5
CCn1ccc2ccc(CN3CCCC3c3nc(C(C)C)no3)cc21 (stereo not drawn)    -10.7
Cc1cccc(N2CC3(COCCN(c4ccncn4)C3)OCC2=O)c1 (stereo not drawn)    0.341
CC(c1ncc(C(C)(C)C)o1)N1CCN(c2ccncc2)CC1 (stereo not drawn)    -2.28
CCC(Nc1nnnn1-c1ccccc1)C(=O)Nc1nc(C)cs1 (stereo not drawn)    -12.4
COc1cccc(CSCC(=O)NCc2cccnc2)c1    -3.51
CN1CCC(Cc2noc(-c3cn(Cc4ccccc4Cl)nn3)n2)CC1    0.52
Cc1csc(N(C)C(=O)C2CC(=O)N(c3ccccc3F)C2)n1 (stereo not drawn)    -0.144

Then this compound:
Ask: Look up cytotoxicity at 70.5 h: `Cc1cc(NC(=O)CNCc2csc(-c3cnccn3)n2)ccc1Cl`
Result: -6.43
